Test: yeast display, Sf9 membrane polyspecificity reagent, FACS + sequencing; frameworks hold sequencing errors

macromolecule.sequence | polyreactivity (PSR sort gate)
QVQLVESGGGLVQAGGSLRLSCAASGRIFYYYAMGWYRQAPGKERELVAAISWSGVNTYYADSVKGRFTISRDNAKNTVYLQMNSLKPEDTAVYYCAAGFAYKYSKGFWSDYWGQGTQVTVSS | high polyreactivity
QVQLVESGGGLVQAGGSLRLSCAASGSIFNSNAMGWYRQAPGKERELVAVISWSDGSTRYADSVKGRFTISRDNAKNTVYLQMNSLKPEDTAVYYCNADLVYYYRQEVDYWGQGTEVTVSS | low polyreactivity
QVQLVESGGGLVQAGGSLRLSCAASGSIIWLYAMGWYRQAPGKERELVAAISSGGSTYYADSVKGRFTISRDNAKNTVYLQMNSLKPEDTAVYYCAADYWSQSDWWDLTEYEYWGLGTQVTVSS | high polyreactivity
QVQLVESGGGLVQAGGSLRLSCAASGSTFSGYAMGWYRQAPGKERELVAAITSGGITNYADSVKGRFTISLDNAKNTLYLQMNSLKPEDTAVYYCAKSVSGIGVGYDYWGQGTQVTVSS | low polyreactivity
QVQLVESGGGLVQAGGSLRLSCAASGIIFSYNAMGWYRQAPGKERELVAAINSSGGSTNYADSVKGRFTISRDNAKNTVYLQMNSLKPEDTAVYYCAARDATYYGVWRYYGIDDYWGQGTQVTVSS | low polyreactivity

* * *

Assay: yeast display, Sf9 membrane polyspecificity reagent, FACS + sequencing; frameworks hold sequencing errors

macromolecule.sequence | polyreactivity (PSR sort gate)
QDQLVESGGGLVQAGGSLRLSCAASGYIFRYYAMGWYRQAPGKERELVAAISWNGGRTYYADSVKGRFTISRDNAKNTVYLQMNSLKPEDTAVYYCNTYWDGAREYDYWGQGTQVTVSS | high polyreactivity
QVQLVESGGGLVQAGGSLRLSCAASGFIFDSYAMGWNRQAPGKERELVAAIDKRGGRTYYADSVKGRFTISRDNGKNTVYLQMNSLKPEDTAVYYCAADDYTGYGYWGQGTQVTVSS | high polyreactivity
QVQLVESGGGLVQAGGSLRLSCAASGNIFYINAMGWYRQAPGKERELVAAISSGGRTNYADSVKGRFTISRDNAKNTVYLQMNSLNPEDTEVYYCNADGWYAWRYYAPGGYDYWGQGTQVTVSS | low polyreactivity
QVQLVESGGGLVQAGGSLRLSCAASGSTFGKNAMGWYRPAPGKERELVAAITSSGGRTYYADSVKGRFTISRDNAKNTVYLQMNSLKPEDTAVYYCNAVTRRRSLGPWPVEYDYWGQGTQVTVSS | high polyreactivity
QVQLVESGGGLVQAGGSLRLSCAASGSIFTSYAMGWYRQAPGKERELVAAITSTGGSTYYADSVKGRFTISRENAKNTVYLQMNSLKPEDTAVYYCNADGGTPYDYWGQGTQVTVSS | low polyreactivity
QVQLVESGGGLVQAGGSLRLSCAASGRTFAWYTMGWYRQAPGKERELVAAISGSGGSTYYADSVKGRFTISRDNAKNTVYLQMNSLKPEDTAVYYCSRRVDSYYGHTRYYYWGQGTQVTVSS | high polyreactivity
QVQLVESGGGLVQAGGSLRLSCAASGRTFAYYAMGWYLQAPGKERELVAAISSGGGSTYYADSVKGRFTISRDNAKNTVYLQMNSLKPEDTAVYYCNKGFNYGGWFKKYGYWGQGTQVTVSS | high polyreactivity
QVQRVESGGGLVQAGGSLRLSCAASGRIFEYYAMGWSRQAPGKERELVAAINTGGNTYYADSVKGRFTISRDNAKNTVYLQMNSLKPEDTAVYYCATYPIWYGGYLSGTDYDYWGQGTQVTVSS | low polyreactivity
QVQLEESGGGLVQAGGSLRLSCAASGRIRYYAMGWYRQAPGKERELVAAISSTGGSTYYADSVKGRFTISRDNAKNTVYFQMNSLKPEDTAVYYCNVAWIWGKYEYWGQGTQVTVSS | high polyreactivity
QVQLVESGGGLVQAGGSLRLSCAASGRTFSNYAMGWYRQAPGKERELVAAISQRGGSTYYADSVKGRFTISRDNAKNTVYLQMNSLKPEDTAVYYCNARQTTATVGTGNYWGQGTQVTVSS | high polyreactivity
QVQLVESAGGLVQAGGSLRLSCAASGSTFYAYVMGWYRPAPGKARELVAAISKGGGSTYYADSVKGRFTISRDNAKNTVYLQMNSLKPEDTAVYYCAAYASYSNYRKYNYWGQGTQVTVSS | high polyreactivity
QVQLVESGGGLVQAGGSLRLSCAASGSIFYGNTMGWYRQAPGKERELVAAIRSVGRTYYADSVKGRFTISRDNAKNTVYLQMNSLKPEDTAVYYCAADPRSYFTSEYWGQGTQVTVSS | high polyreactivity
QVQLVESGGGLVQAGGSHRLSCAASGQTVYYYPMGWYRQAPGKEREVVASISTGGNTYYADSVKGRFTISRDNAKNTVYLQMNSLKPEDTAVYYCAAGLYSWSGFASYNSAYGYWGQGTQVTVSS | low polyreactivity
QVQLVESGGGLVQAGGSLRLSCAASGGIFVYYAMGWYRQAPGKERELVAAISSGGTTNYADSVKGRFTISRDNAKNTVYLQMNSLKPEDTAVYYCAIYVSWPLYYYWGQGTQVTVSS | low polyreactivity
QVQLVESGGGLVQAGGSLRLSCAASGLIFSVYAMGWYRQAPGKVRELVAAITGSGGRTYYADSVKGRFTISRDNAKNYVYLQMNSLKPEDTAVYYCAATVSSYPYYRYYSWGQGTQVTVSS | high polyreactivity
QVQLVESGGGLVQAGGSLRLSCAASGSSFTGNAMGWYRQAPGKERELVASINGSSGSTYYADSVKGRFTISRDNAKNTVYLEMNSLKPEDTAVYYCNADTYYVEYTAFDYWGQGTQVTVSS | low polyreactivity
QVQLVESGVRLGQAGGSLRLSCAASGSIFLRYAMGWFRPAPGKERELVATISQRGSTYYADSVKGRFTISRDNAKNTVYLKKNSLKPEDTAVYYCNAVGRARTLGSNTYGYWGQGTQVTVSS | high polyreactivity
QVQLVESGGGLVQAGGSLRLSCAASGRTSSWYVMGWYRQAPGKERELVAAISGSGGSTYYADSVKGRFTISRDNAKNTVYLQMNSLKPEDTAVYYCAADSWSYSGYNYWGQGTQVTVSS | high polyreactivity
QVQLVESGGGLVQAGGSLRFSCAASGSIFYRNAMGWDRQAPGKEREMVAAISASSGRTYYADSVKGRFTISRDNAKNTVYLQMNSLKPEDTAVYYCAVRPYRSAGGSVTRGAYYYWGQGTQVTVSS | high polyreactivity
QVQLVESGGGLVQAGGSLRLSCAASGITFRRYTMGWYRQAPGKERELVAAITTNAGSTYYADSVKGRFTISRDNAKNTVYLQMNSLKPEDTAVYYCAARWYYPYRTRYSSSYGYWGQGTQVTVSS | high polyreactivity
QVQLVESVGGLVQAGGSLRLSCAASGSIFSYYAMGWYRQAPGKERELVAAITSSGDSTYYADSVKGRFTISRDNAKNTVYLQINSLKPEDTAVYYCAAGILDLKLYFSSYDYWGQGTQVTVSS | low polyreactivity

* * *

Assay: yeast display, Sf9 membrane polyspecificity reagent, FACS + sequencing; frameworks hold sequencing errors

macromolecule.sequence | polyreactivity (PSR sort gate)
QVQLVESGGGLVQAGGSLRLSCAASGSTFTVYAMGWYRQAPGKERELVAAISSSTGSTYYADSVKGRFTISRDNAKNTVYLQMNSLKPEDTAVSYCAADVYHVTTSSYTEFEYWGQGTQVTVSS | low polyreactivity
QVQLVESCGGIVQAGVSLRLSCAASGSIFGIYAMGWYRQAPGKERELVAAIDSSGTSTYYADSVKGRFTISRDNEKNTVYLQMNSLKPEDTAVNSSAAYHRISKNNYWGQGTEVTVSS | low polyreactivity
QVQLVESGGGLVQAGGSLRLSCAASGFTFRRNAMGWYRQAPGKEWEFVAAITGRGTGTYYADSVKGRFTISRDNAKNTVYLQMYILKPEDTAGYYCNDDPVRYLFNRYDYWGQGTQVTVSS | high polyreactivity
QVQLVESGGGLVKAGGSLRLTCSASGSIFRRNALRCSRHAPGKERELDAAISSGGSTNYADSVKGRFTISRDNAKNTVYLQMISQKPEDSAVYYCNTRYFRRARKGDSWGQGTQVTVSS | high polyreactivity
QVQLVESGGGLVQAGGSLRLSCAASGSTFRVYAMGWYRQAPRKERELVAAISKSGVSTYYADSVKGRFTISRDNAMNTVYLQMNSLKPEDTAVYYCPVFLGYSRKYDYWGQGTQVTVSS | high polyreactivity

* * *

Assay: yeast display, Sf9 membrane polyspecificity reagent, FACS + sequencing; frameworks hold sequencing errors
attribute.measured: polyreactivity (PSR sort gate)

macromolecule.sequence | value.observed
QVQLVESGGGLDQARGSLRLSCAASGRTSLRYAMGWYRQAPWKERELVAAITSSGATTYYADSVKGRFTISRDNAKNTVYLQMNSLKPEDTAVYYCAAVYSAKRGSGGFGYWGQGTQVTVSS | high polyreactivity
QVQLVESGGGLVQAGGSLRLSCAASGRIFSKYAMGWYRQAPGKEREFVASISYRGGSTYYADSVKGRFTISRDNAKNTVYLQMNSLKPEDTAVYYCATRKYADRESDYWGQGTQVTVSS | high polyreactivity
QVQLVESGGGLVQAGGSLRLSCAASGRIFTRNGMGWYRQAPGKERELVAASTRGGRTNYADSVKGRFTISRDNAKNTVYLQMNSLKPEDTAVYYCAAGFPWSYYGSYDYWGQGTQVTVSS | high polyreactivity
QVQLVESGGGLVQAGGSLRLSCAASGSTFFPNGMGWYRQARGKEWELVAAITQDGGSTYYADSVKGRFTISRDNAKNTVYLQMNSLNPEDTAVYYCAASAGPYYEYGYWGQGTQVTVSS | low polyreactivity
QLQLEESAGGLVQAGGSLRLSCAASGSIFGPYAMGSYSQAPGKERELVAAITWSGDSTYYADSVKGRFTISRDNAKNTVYLQMNSLKPEDTAVSYCNADWGQGTQVTVSS | low polyreactivity
QVQLVESGGGLVQAGGSLRLTCAASGSTFQHYAMGWYRQAPGKEMELVAAITNTGGSTYYADSVKGRFTISRDNAKNTVYLQMNSLKPEDNAVYYCATVARRYGYPGYYWGQGTQVTVSS | low polyreactivity
QVQLVESGGGLVQAGGRLRLSCAASGSTIGYYTMGWYRQAPGKERELVAAISWSGDSTYYADSVKGRFTISRDNAKNTVYLQMNSLKPEDTAVYYCAKVHYVRRGDSRYDYWGQGTQVTVSS | high polyreactivity
QVQLVESGGGLVQAGDSLRLSCAASGSIFVYYAMGWYRQAPGKERELVASISKTGGRTYYADSVKGRFTISRDNAKNTVFLQMNSLKPEDTAVYYCAARYTIRYKRYDYWGQGSQVTVSS | high polyreactivity
QVQLVESGGGLVQAGGSLRLSCAASGRTFSAYAMGWYRQAPGKERELVARITSVDSTNYADSVKRRFTISRDNAKNSVYLQINSLKPEDTAVYYCNATFGYPFVDYDDYWGQGTQVTVSS | low polyreactivity
QVQLVESGGGLVQAGGSLRLSCAASGSTFHIYAMGWYRQAPGKERELVAGITRGSTYYADSVKGRFTISRDNAKNTVYLQMNSLKPEDTAVYYCAADVYGFRYSESDYWGQGTQVTVSS | low polyreactivity
QDQLLESGGGLVQAGGSLRLSCAASGFTFYRYAMGWYRQAPGKERELVASISKSCGSTYYADSVKGRFTISRDNAKNTVYLQMNSLKPEDTAVYYCAADVDYPYGYWGQGTQVTVSS | low polyreactivity
QVQLVESGGGLVQAGGSLRLSCAASGRTFLENAMGWYRQAPGKERELVAAISWRGGNTHYADSVKGRFTISRDNAKNTVYLQMNSLKPEDTAVYYCNAVNYRNKYDYWGQGTQVTVSS | high polyreactivity
QVQLGESGGGLVQAGGSLRLSCAASGFTFYNYAMGWYRQAPGKERELVAAISTSGGSTYYADSVKGRFTISRDNAKNTVYLQMNSLKPEDTAVYYCAAQATAYSYAYYYWGQGTQVTVSS | low polyreactivity
QDQLVESGGGLVQAGGSLRLSCAASGFTFGDNAMGWYRQAPGKERELVAAITSSGSTNYADSVKGRFTISRDNAKNTVYLQMNSLKPEDTAVYYCNAEDSVDAPVYKDLGSEYDSWGQGTQVTVSS | low polyreactivity
QVQLVESGGGLVQAGGSLRLSCAASGSTFSPYTMGWYRQAPGKERELVAAITWSGVTTYYADSVKGRFTISRDNAKNTVYLQMNSLKPEDSAVYYCAAGRTRRKFDYWGQGTQVTVSS | low polyreactivity
QVQLVESGGGLVQAGGSLRLSCAASGFTFYYNARGWYRQAPGKERELVASITRSGGRTYYADSVKGRFTISRDNAKNTVYLQMNSLKPEDTAVYYCAAANHKGSRMDYWGQGTQVTVSS | high polyreactivity
QVQLVESGGGLVQAGGSLRLSCAASGLIFVVYAMGWYRQAPGKERELVAVISSDGGTYYADSVKGRFTISRDNAKNTVYLQMNSLKPEDTAVYYCAALGYPNARTSRISYFRYDYWGQGTQVTVSS | high polyreactivity
QVQLVESGGGLVQAGGSLRLSCAASGRTFRYNAMGWYRQAPGKERELVASITYRGGSTYYADSVKGRFTISRDNAKNTVYLQMNSLKPEDTGVYYCATSVYSRPRKPRYYYWGQGTQVTVSS | high polyreactivity
QVQLVESGGGLVQAGGSLRLSCAASGRIFGWYAMGWYRQSPGKERELVAAITGSGSRTYYADSVKGRFTISRDNAKNTVYLQMNSLKPEDTAVYYCAVPTRRRRIYDYWGQGTQVTVSS | high polyreactivity
QVHLVESGGGLVQAGGSLRLSFAASRSIFSKYVMGWYRQAPGKERELVASITSGGRTNYADSVKGRFTISRDNAKNTVYLQMNSLKPEDTAVYYCAARAFKTWYRSGVDYWGQGTQVTVSS | low polyreactivity
QVQLVESGGGLVQAGGRLRLSCAASGLTFGGNAMGWYRQAPGKERELVAAISWSDDTTDYADSVKGLFTISRDNAKNTVYFQMNRLKPEDTAVYYCAARLPFEHVDYWGQGTQVTVSS | low polyreactivity
